- testDescription: Brain-penetrating ability, brain:plasma ratio
- Type: in vivo, Male CD1 mice
- conditionInfo: male, CD1, mouse, brain and plasma, iv; i.v. 5 mg/kg, 3 hours post-dose; read-out: Ratio of Brain to Plasma Levels (at T = 3 hours, %)
observationType: Kp at 3 h
Could you keep your reply to the number by itself?

In: // lookup Kp at 3 h for CN(C)c1ccc(O)c2c1C[C@H]1C[C@H]3[C@H](N(C)C)C(O)=C(C(N)=O)C(=O)[C@@]3(O)C(O)=C1C2=O [Minocycline, minocycline, reference compound]
Out: 1.28
